Subject Of Test: Beta-3 adrenergic receptor (Homo sapiens)
Assay Overview: Agonist activity at human beta-3 adrenergic receptor expressed in CHO cells assessed as increase in intracellular cAMP accumulation after 30 mins by time-resolved fluorescence assay
Sequence (P13945 whole entry): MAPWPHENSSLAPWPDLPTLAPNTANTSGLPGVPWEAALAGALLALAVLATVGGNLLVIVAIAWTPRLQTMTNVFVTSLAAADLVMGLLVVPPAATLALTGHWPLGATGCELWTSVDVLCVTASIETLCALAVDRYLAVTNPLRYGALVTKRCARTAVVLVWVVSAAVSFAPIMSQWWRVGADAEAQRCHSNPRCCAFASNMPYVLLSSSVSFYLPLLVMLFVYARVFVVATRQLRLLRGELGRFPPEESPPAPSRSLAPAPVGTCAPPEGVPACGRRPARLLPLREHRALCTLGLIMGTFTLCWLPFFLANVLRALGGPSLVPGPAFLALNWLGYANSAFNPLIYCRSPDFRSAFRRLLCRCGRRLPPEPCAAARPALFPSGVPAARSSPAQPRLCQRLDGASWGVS
pEC50: −log10 of the molar value.
Value Type: pEC50

Some molecules with known pEC50 results, for comparison:
>  <Smiles Code>
C[C@@H](C(=O)Nc1ccc(C[C@@H]2CC[C@H]([C@H](O)c3ccccc3)N2)cc1)c1csc(N)n1

>  <pEC50>
9.74

$$$$
>  <Smiles Code>
CC(C)[C@@H](C(=O)Nc1ccc(C[C@@H]2CC[C@H]([C@H](O)c3ccccc3)N2)cc1)c1csc(N)n1

>  <pEC50>
8.80

$$$$
>  <Smiles Code>
Nc1nc2c(s1)CC[C@H]2C(=O)Nc1ccc(C[C@@H]2CC[C@H]([C@H](O)c3cccc(F)c3)N2)cc1

>  <pEC50>
10.40

$$$$

P: CCc1nc2c(s1)CC[C@H]2C(=O)Nc1ccc(C[C@@H]2CC[C@H]([C@H](O)c3cccnc3)N2)cc1
Q: CCc1nc2c(s1)CC[C@H]2C(=O)Nc1ccc(C[C@@H]2CC[C@H]([C@H](O)c3ccccc3)N2)cc1
Of the pair P and Q , name the member with the lesser recorded pEC50. Your answer should be the label of the entry you select. P
(P: 7.87, Q: 8.71)

a: O=C(Nc1ccc(C[C@@H]2CC[C@H]([C@H](O)c3cccnc3)N2)cc1)[C@@H]1CCc2sc(-c3ccc(F)cc3)nc21
b: Nc1nc2c(s1)CC[C@H]2C(=O)Nc1ccc(C[C@@H]2CC[C@H]([C@H](O)c3ccccc3)N2)cc1
c: O=C(Nc1ccc(C[C@@H]2CC[C@H]([C@H](O)c3cccnc3)N2)cc1)[C@@H]1CCc2ccnn21
d: O=C(Nc1ccc(C[C@@H]2CC[C@H]([C@H](O)c3ccccc3)N2)cc1)[C@@H]1CCc2sc(-c3ccc(F)cc3)nc21
e: CCC[C@@H](C(=O)Nc1ccc(C[C@@H]2CC[C@H]([C@H](O)c3ccccc3)N2)cc1)c1csc(N)n1
Sort the molecules on pEC50; start with the lowest figure. Form entry: labels listed in requested order. d, a, c, e, b

P: Nc1nc2c(s1)CCC[C@H]2C(=O)Nc1ccc(C[C@@H]2CC[C@H]([C@H](O)c3ccccc3)N2)cc1
Q: CC[C@@H](C(=O)Nc1ccc(C[C@@H]2CC[C@H]([C@H](O)c3ccccc3)N2)cc1)c1csc(N)n1
R: O=C(Cn1cccn1)Nc1ccc(C[C@@H]2CC[C@H]([C@H](O)c3cccnc3)N2)cc1
S: Nc1nc2c(s1)CC[C@H]2C(=O)Nc1ccc(C[C@@H]2CC[C@H]([C@H](O)c3cccnc3)N2)cc1
Sort the molecules on pEC50; start with the lowest figure. Form entry: labels listed in requested order. R, Q, S, P
(R: 7.12, Q: 9.08, S: 9.43, P: 9.68)

* * *

Subject Of Test: Beta-3 adrenergic receptor (Homo sapiens, UniProt P13945)
Assay Overview: Agonist activity at human beta-3 adrenergic receptor expressed in CHO cells assessed as increase in intracellular cAMP accumulation at 10^-10 to 10^-5 M after 30 mins by time-resolved fluorescence assay relative to R-(-)isoproterenol
Assay type: functional, cell-based
Sequence (P13945 whole entry, looked up): as the sequence (P13945 whole entry) above
Value Type: Activity (%)

Some molecules with known Activity results, for comparison:
>  <Smiles Code>
CCC[C@@H](C(=O)Nc1ccc(C[C@@H]2CC[C@H]([C@H](O)c3ccccc3)N2)cc1)c1csc(N)n1

>  <Assay Result>
66

$$$$
>  <Smiles Code>
C[C@@H](C(=O)Nc1ccc(C[C@@H]2CC[C@H]([C@H](O)c3ccccc3)N2)cc1)c1csc(N)n1

>  <Assay Result>
84

$$$$
>  <Smiles Code>
CCc1nc2c(s1)CC[C@H]2C(=O)Nc1ccc(C[C@@H]2CC[C@H]([C@H](O)c3cccnc3)N2)cc1

>  <Assay Result>
49

$$$$
>  <Smiles Code>
O=C(Nc1ccc(C[C@@H]2CC[C@H]([C@H](O)c3cccnc3)N2)cc1)[C@@H]1CCc2ccnn21

>  <Assay Result>
84

$$$$
>  <Smiles Code>
O=C(Cn1cccn1)Nc1ccc(C[C@@H]2CC[C@H]([C@H](O)c3cccnc3)N2)cc1

>  <Assay Result>
72

$$$$
>  <Smiles Code>
CC(C)[C@@H](C(=O)Nc1ccc(C[C@@H]2CC[C@H]([C@H](O)c3ccccc3)N2)cc1)c1csc(N)n1

>  <Assay Result>
85

$$$$
>  <Smiles Code>
O=C(Nc1ccc(C[C@@H]2CC[C@H]([C@H](O)c3cccnc3)N2)cc1)[C@@H]1CCc2scnc21

>  <Assay Result>
103

$$$$
>  <Smiles Code>
Nc1nc2c(s1)CC[C@H]2C(=O)Nc1ccc(C[C@@H]2CC[C@H]([C@H](O)c3cccc(Cl)c3)N2)cc1

>  <Assay Result>
93

$$$$

A: Nc1nc2c(s1)CCCC[C@H]2C(=O)Nc1ccc(C[C@@H]2CC[C@H]([C@H](O)c3ccccc3)N2)cc1
B: O=C(Nc1ccc(C[C@@H]2CC[C@H]([C@H](O)c3cccnc3)N2)cc1)[C@@H]1CCc2sc(-c3ccc(F)cc3)nc21
Of the pair A and B , name the member with the lesser recorded Activity. Your answer should be the label of the entry you select. B

* * *

Subject Of Test: Beta-3 adrenergic receptor (Homo sapiens, UniProt P13945)
Assay Overview: Agonist activity at human beta-3 adrenergic receptor expressed in CHO cells assessed as increase in intracellular cAMP accumulation after 30 mins by time-resolved fluorescence assay
Value Type: EC50 (nM)

>  <Smiles Code>
Cc1nc2c(s1)CC[C@H]2C(=O)Nc1ccc(C[C@@H]2CC[C@H]([C@H](O)c3ccccc3)N2)cc1

>  <Subject Of Test>
Beta-3 adrenergic receptor (Homo sapiens, UniProt P13945)

>  <EC50 [nM]>
0.48

$$$$

I: Nc1nc2c(s1)CC[C@H]2C(=O)Nc1ccc(C[C@@H]2CC[C@H]([C@H](O)c3cccc(Cl)c3)N2)cc1
II: C[C@@H](C(=O)Nc1ccc(C[C@@H]2CC[C@H]([C@H](O)c3cccnc3)N2)cc1)n1cccn1
Of the pair I and II , name the member with the lesser recorded EC50. Your answer should be the label of the entry you select. I

I: Cc1nc2c(s1)CC[C@H]2C(=O)Nc1ccc(C[C@@H]2CC[C@H]([C@H](O)c3cccnc3)N2)cc1
II: Nc1nc2c(s1)CC[C@H]2C(=O)Nc1ccc(C[C@@H]2CC[C@H]([C@H](O)c3ccc(F)cc3)N2)cc1
Between I and II , whose measured EC50 reads higher? Your answer should be the label of the entry you select. I
